Reference source: patent US6737383B1

So I've got a bunch of molecules here, and I need their Blackgrass plant response rating values.
Test system: blackgrass
Assay: Test B pre/postemergence blackgrass
Type: in vivo, Alopecurus myosuroides
Conditions: Postemergence, Rate 125 g/ha; scale of 0 to 10 where 0 is no effect and 10 is complete control

Worked set:
molecule | Blackgrass plant response rating
CC(C)N(C(=O)n1oc(=O)n(C2CCCCC2)c1=O)c1ccc(F)cc1 | 4
Cc1nc(C(C)n2c(=O)on(C(=O)N(c3ccccc3)C(C)C)c2=O)sc1C (stereo not shown) | 0
C#CCn1c(=O)on(C(=O)N(c2ccc(F)cc2)C(C)C)c1=O | 5

Now for a further molecule.
// sample C#CC(C)n1c(=O)on(C(=O)N(c2ccc(F)cc2)C(C)C)c1=O (stereo not shown) , its Blackgrass plant response rating was 5

###

Tested on: giant foxtail
Assay: Test B pre/postemergence giant foxtail
Type: in vivo, Setaria faberii
Conditions: Preemergence, Rate 500 g/ha; scale 0 (no effect) to 10 (complete control)
measured.attribute: Giant foxtail plant response rating
Give bare numbers.

compound | Giant foxtail plant response rating
CC(C)N(C(=O)n1oc(=O)n(-c2cc(Cl)cc(Cl)c2)c1=O)C1=CCOCC1 | 3
CC(C)Oc1cc(-n2c(=O)on(C(=O)N(c3ccc(F)cc3)C(C)C)c2=O)c(Cl)cc1Cl | 0
CC(C)N(C(=O)n1oc(=O)n(-c2ccc(OC(F)(F)F)cc2)c1=O)C1=CCOCC1 | 8

Could I get Giant foxtail plant response rating for every one of these entries?
1. CC(C)N(C(=O)n1oc(=O)n(C2CCCCC2C(F)(F)F)c1=O)c1ccc(F)cc1 (stereo not drawn)
2. CCN(CC)C(=O)n1oc(=O)n(-c2cccc3c2CCCC3)c1=O
3. COc1ccc(-n2c(=O)on(C(=O)N(C3=CCOCC3)C(C)C)c2=O)cc1

Response:
10
2
9

###

So I've got a bunch of compounds here, and I need their Wild oats plant response rating values.
Test system: wild oat
Experiment: Test B pre/postemergence wild oat
Format: in vivo, Avena fatua
Conditions: Rate 62 g/ha, Postemergence; scale 0 to 10 (0 no effect, 10 complete control)
Give bare numbers.

Worked set:
compound | target.of.assay | reported.result
Cc1c(-n2c(=O)on(C(=O)N(c3ccc(F)cc3)C(C)C)c2=O)ccc2ccccc12 [Compound 338] | wild oat | 0
CC(C)N(C(=O)n1oc(=O)n(C2CCCCO2)c1=O)c1ccc(F)cc1 (stereo not drawn) [Compound 311] | wild oat | 0

Now for a further compound.
// sample CC(C)N(C(=O)n1oc(=O)n(CCC[Si](C)(C)C)c1=O)c1ccc(F)cc1 [Compound 461] , its Wild oats plant response rating was 0

###

Test system: purple nutsedge
Experiment: Test B pre/postemergence purple nutsedge
Assay type: in vivo, Cyperus rotundus
Conditions: Preemergence, Rate 500 g/ha; scale of 0 to 10 where 0 is no effect and 10 is complete control
measured.attribute: Nutsedge plant response rating
One number for each entry.

Worked set:
smi | Nutsedge plant response rating
CCc1nc(C)c(Cn2c(=O)on(C(=O)N(c3ccc(Cl)cc3)C(C)C)c2=O)s1 | 0
CC(C)N(C(=O)n1oc(=O)n(CC2CC2)c1=O)c1ccccc1 | 3
CC(C)N(C(=O)n1oc(=O)n(C2CCCCCC2)c1=O)c1ccc(Cl)cc1 | 0
Cc1c(-n2c(=O)on(C(=O)N(c3ccc(F)cc3F)C(C)C)c2=O)ccc2ccccc12 | 0
CCOC(=O)C=C(Cn1c(=O)on(C(=O)N(c2ccc(F)cc2F)C(C)C)c1=O)OCC | 0

Now for a further molecule.
// sample CC(C)N(C(=O)n1oc(=O)n(C2CCC2)c1=O)c1ccc(Cl)cc1 , its Nutsedge plant response rating was 0
